Values from ChEMBL document CHEMBL1201862

system: OVCAR-4; assay: NCI tumour cell line growth inhibition, 48 h
Active and inactive are the calls of the source. Rule as the data show it: active = GI50 up to about 1.1 µM and inactive = higher.
Listed here: items and their measured GI50.
MEASUREMENT TYPE: GI50

1) Cc1cc(S(=O)(=O)Nc2nnc3c(Cl)cc(C(F)(F)F)cn23)c(S)cc1Cl ... 66.5 µM (inactive)
2) CC1CC2=C(C1)C(C1(C)C(=O)CC3C(C1=O)C3(C)C)C(C)C2=O (centres undefined) ... > 100 µM (inactive)
3) C/C(=C1/N=C(c2ccccc2)OC1=O)c1ccccc1 ... > 100 µM (inactive)
4) O=c1cc(CNC2CCCC2)[nH]c(=O)[nH]1 ... > 100 µM (inactive)
5) O=P1(Cc2ccccc2)N(Cc2ccccc2)[C@@H]2CCCC[C@H]2N1Cc1ccccc1 ... 3.01 µM (inactive)
6) COc1cc(Nc2cc(Cl)cc(Cl)c2)nc(N)n1 ... 17.9 µM (inactive)
7) NC(=O)c1csc(C2OC(CO)C(O)C2O)n1 (centres undefined) ... 13.7 µM (inactive)
8) Cc1c(-c2ccc(-c3ccccc3F)cc2)nc2ccc(F)cc2c1C(=O)O [BREQUINAR SODIUM] ... 2.73 µM (inactive)
9) CC1OC(OC2C(O[C@H]3CC[C@@]4(C)C(=CC[C@H]5[C@@H]6C[C@@H]7O[C@]8(CC[C@@H](CO)CO8)[C@@H](C)[C@@H]7[C@@]6(C)CC[C@@H]54)C3)OC(CO)C(O)C2OC2OC(CO)C(O)C(O)C2O)C(O)C(O)C1O (some centres undefined) ... 1.91 µM (inactive)
